# Test system: PGE 2 synthesis and release
# Method: Inhibition of PGE 2 synthesis and release in vitro
# Format: cell-based
# Measurement conditions: at 10^-5
Property label: PGE 2 (% of controls)

[in] What value of measured PGE 2 (% of controls) is listed for CC(C)=NNc1nc2ccccc2s1 [Example 2, N-(benzothiazol-2-yl)-acetone hydrazone] ?
[out] 43 % of controls

[in] Fill in the blank: the reported PGE 2 (% of controls) of O=CNNc1nc2ccccc2s1 [Example 8, benzothiazol-2-one-(β-formyl hydrazone)] is ____.
[out] 112 % of controls

[in] Suppose we examine the compound CCC=NNc1nc2ccccc2s1 ; what PGE 2 (% of controls) value has been reported?
[out] 37 % of controls

[in] Which PGE 2 (% of controls) value is on record for CC=NNc1nc2ccccc2s1 ?
[out] 38 % of controls

====

# Test system: Acute inflammatory oedema of the paws
# Method: Rat paw oedema test (carrageenin)
# Type: in vivo
# Measurement conditions: po, i.g., 1 hour after carrageenin injection, inhibition of increase in paw volume, male rats
I'd appreciate it if you could supply ED50 values for the items below.
Respond numerically; units are mg/kg and should not be typed.

[in] Tell me the measured ED50 of CC=NNc1nc2ccccc2o1 [Example 5] , please.
[out] 20

[in] Param item = O=CNNc1nc2ccccc2s1 [Example 8, benzothiazol-2-one-(β-formyl hydrazone)] ; retrieve measured ED50.
[out] 14

[in] Which ED50 reading was recorded for the molecule CCC=NNc1nc2ccccc2o1 [Example 7] ?
[out] 20

====

# Test system: Acute inflammatory oedema of the paws
# Method: Rat paw oedema test (carrageenin)
# Assay type: in vivo
# Measurement conditions: po, i.g., 1 hour after carrageenin injection, inhibition of increase in paw volume, male rats
Property label: ED50 (mg/kg)
# number only, unit mg/kg dropped from output

[in] Reported ED50, compound CCC(C)=NNc1nc2ccccc2s1 [Example 4] : ____
[out] 10

[in] Name the reported ED50 value associated with the compound CC(C)=NNc1nc2ccccc2s1 [Example 2, N-(benzothiazol-2-yl)-acetone hydrazone]
[out] 10

[in] What does the data say about its ED50? Entry: CC(C)=NNc1nc2ccccc2o1 [Example 6, N-(benzoxazol-2-yl)-acetone hydrazone]
[out] 10

[in] State the recorded ED50 for this entry: CC=NNc1nc2ccccc2s1 [Example 1]
[out] 15

[in] I'd like to know its ED50. The compound in question is CCC=NNc1nc2ccccc2s1 [Example 3]
[out] 20
